The values you see were collected from the supplement of paper PMC12042874.

- protocol_notes: amyloid nucleation score (Sup35N fusion, yeast selection) (log enrichment); library NNK1; higher = more nucleation; inactive = no reads after selection;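 note: zero at mode of non-aggregating sequences after 7 days selection at 30°C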
Rule: amyloid nucleation score under 0.4 gives F, otherwise T.

These recorded examples may help you get a feel for the data.
SKARKIWYAWLVTPPMRQTE
T
YGNIGV
F
DCFYLSIGRIFFHP
T
LKTEPHIRLSPLETRPV
T
LFYTCRVDQGPVWGLLTKRR
F

Given the entry "LSYLGLLP" , answer whether its amyloid nucleation score meets or surpasses 0.4.
F

Has "SYQCGENYMFAYVNWSVGGN" a recorded amyloid nucleation score greater than or equal to 0.4?
T

Please tell me: is the substance "TYEPKGRLPCWCSAQSMGCL" at or over 0.4 in terms of amyloid nucleation score?
F
